- target or test system: ATP-sensitive potassium channels (Cavia porcellus)
- Sequence (A0A286XYR9 1-1546): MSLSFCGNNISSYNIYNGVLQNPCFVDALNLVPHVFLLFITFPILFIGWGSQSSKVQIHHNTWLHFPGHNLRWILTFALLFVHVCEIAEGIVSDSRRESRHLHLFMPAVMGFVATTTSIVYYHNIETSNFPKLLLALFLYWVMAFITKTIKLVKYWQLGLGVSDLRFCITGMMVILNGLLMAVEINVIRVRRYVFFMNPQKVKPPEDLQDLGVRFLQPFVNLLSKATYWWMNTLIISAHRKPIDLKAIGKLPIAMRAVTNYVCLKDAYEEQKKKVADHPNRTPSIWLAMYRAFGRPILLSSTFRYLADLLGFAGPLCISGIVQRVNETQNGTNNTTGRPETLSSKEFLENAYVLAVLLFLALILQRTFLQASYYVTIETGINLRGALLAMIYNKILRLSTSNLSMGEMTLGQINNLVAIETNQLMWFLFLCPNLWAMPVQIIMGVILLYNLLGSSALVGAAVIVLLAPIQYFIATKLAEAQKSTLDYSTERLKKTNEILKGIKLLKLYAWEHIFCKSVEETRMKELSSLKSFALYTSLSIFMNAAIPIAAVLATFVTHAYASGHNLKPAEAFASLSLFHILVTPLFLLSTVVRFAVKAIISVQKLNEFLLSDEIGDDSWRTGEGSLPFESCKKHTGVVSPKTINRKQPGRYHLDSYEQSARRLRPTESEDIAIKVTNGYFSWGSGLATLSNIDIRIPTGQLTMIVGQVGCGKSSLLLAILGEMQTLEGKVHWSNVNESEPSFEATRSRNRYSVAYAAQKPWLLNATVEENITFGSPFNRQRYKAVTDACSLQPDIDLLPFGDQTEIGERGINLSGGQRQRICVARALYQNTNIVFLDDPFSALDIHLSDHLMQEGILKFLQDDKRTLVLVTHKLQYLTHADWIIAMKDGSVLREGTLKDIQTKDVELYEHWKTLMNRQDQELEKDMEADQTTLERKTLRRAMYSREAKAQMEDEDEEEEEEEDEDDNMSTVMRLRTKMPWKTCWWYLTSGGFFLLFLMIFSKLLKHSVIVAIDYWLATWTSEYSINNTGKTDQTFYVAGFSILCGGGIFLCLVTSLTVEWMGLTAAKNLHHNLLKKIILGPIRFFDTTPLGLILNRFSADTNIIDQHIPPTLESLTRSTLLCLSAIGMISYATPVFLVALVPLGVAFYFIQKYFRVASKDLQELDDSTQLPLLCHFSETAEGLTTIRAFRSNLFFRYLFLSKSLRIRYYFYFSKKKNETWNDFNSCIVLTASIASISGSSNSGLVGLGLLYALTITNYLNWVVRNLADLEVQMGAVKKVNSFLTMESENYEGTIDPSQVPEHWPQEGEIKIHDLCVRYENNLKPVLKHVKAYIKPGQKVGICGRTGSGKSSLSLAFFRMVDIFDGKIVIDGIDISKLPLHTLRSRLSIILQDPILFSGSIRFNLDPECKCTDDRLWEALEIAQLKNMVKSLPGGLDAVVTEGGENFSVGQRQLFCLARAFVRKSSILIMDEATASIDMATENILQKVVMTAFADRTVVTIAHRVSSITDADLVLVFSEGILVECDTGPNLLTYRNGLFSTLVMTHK
- protocol details: Radioligand (Example 1) binding assay, guinea-pig cardiac ventricle membranes
- conditions: cardiac membranes; rank order potency; read-out: Ki value for displacement of Example 1 binding

[
  {
    "compound": "CC1=NS(=O)(=O)c2cc(Cl)ccc2N1 [diazoxide]",
    "Ki [µM]": 44.8
  }
]

Every entry's value here was drawn from patent US6632418B2.
